Provenance of the data: paper PMC10397247

Form field: interaction score (one value per entry).
Target: T1, 4H3865-AA
T1 chain: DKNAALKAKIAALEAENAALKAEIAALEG
Experiment: two-hybrid library CCmax;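 also: natural log of median RNA to DNA barcode read ratio; higher means stronger binding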
Conditions: mean of both orientations
Keep the answer to the number alone.

Consider the following illustrative entries.
{"Binder": "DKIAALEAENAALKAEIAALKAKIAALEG [4H2253-AA]", "Measured value": -1.13}
{"Binder": "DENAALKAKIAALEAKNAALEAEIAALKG [4H1842-AA]", "Measured value": -0.938}
{"Binder": "DKNAALKAEIAALEAKIAALKAKNAALEG [4H3631-AA]", "Measured value": -1.53}
{"Binder": "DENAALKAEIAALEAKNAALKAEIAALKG [4H1594-AA]", "Measured value": 1.15}
{"Binder": "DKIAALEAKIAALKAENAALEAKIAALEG [4H2389-AA]", "Measured value": -0.601}

Requested field: interaction score. Item: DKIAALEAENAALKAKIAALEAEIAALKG [4H2274-AA] -0.926

I have this binder here, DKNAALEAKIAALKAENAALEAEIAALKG [4H3410-AA] , and I need its recorded interaction score. 0.873
